Measured AUC at 5 day values are reported for all entries that follow.
# Assay Method Text: Steady-state exposure of ulixertinib and metabolites in rat
# Assay type: in vivo
# Run Parameters: in vivo, day 5, non-isotopically enriched ulixertinib and related metabolites, read-out: Steady-State AUC (Mean ± SD)

Answered examples (3):
{"columns": ["Molecule", "Test Result"],
 "data": [
  ["C[C@H](Nc1cc(-c2c[nH]c(C(=O)N[C@H](CO)c3cccc(Cl)c3)c2)c(Cl)cn1)C(=O)O [Formula 37]", "400 ng·h/mL"],
  ["C[C@@H](CO)Nc1cc(-c2c[nH]c(C(=O)N[C@H](CO)c3cccc(Cl)c3)c2)c(Cl)cn1 [Formula 35]", "1200 ng·h/mL"],
  ["CC(C)Nc1cc(-c2c[nH]c(C(=O)N[C@H](CO)c3cccc(Cl)c3)c2)c(Cl)cn1 [Ulixertinib, reference compound]", "179000 ng·h/mL"]
]}

Query: Dear colleague, I am looking for the recorded AUC at 5 day of the following molecule: C[C@H](CO)Nc1cc(-c2c[nH]c(C(=O)N[C@H](CO)c3cccc(Cl)c3)c2)c(Cl)cn1 [Formula 34]
Result: 15900 ng·h/mL

---

Form field: IC50 (one value per entry).
# Target Or System: CYP2B6 (Homo sapiens)
# Construct: from tissue; host or cells: human liver microsomes, mixed-gender pool of 200
# Sequence (P20813 1-491): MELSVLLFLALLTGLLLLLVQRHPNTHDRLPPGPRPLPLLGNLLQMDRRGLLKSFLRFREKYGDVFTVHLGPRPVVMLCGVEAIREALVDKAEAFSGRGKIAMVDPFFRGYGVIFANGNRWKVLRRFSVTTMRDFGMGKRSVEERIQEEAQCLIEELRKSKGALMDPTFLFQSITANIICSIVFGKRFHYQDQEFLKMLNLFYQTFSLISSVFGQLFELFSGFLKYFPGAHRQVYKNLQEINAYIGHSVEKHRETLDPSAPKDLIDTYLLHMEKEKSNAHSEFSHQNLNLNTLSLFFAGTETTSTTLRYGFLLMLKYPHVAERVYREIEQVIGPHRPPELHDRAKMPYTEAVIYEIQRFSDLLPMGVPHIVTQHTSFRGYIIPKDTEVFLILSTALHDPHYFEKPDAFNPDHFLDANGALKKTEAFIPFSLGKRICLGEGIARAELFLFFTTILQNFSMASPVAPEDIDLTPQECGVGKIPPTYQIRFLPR
# Assay Method Text: In-vitro CYP inhibition study, CYP2B6
# Assay type: in vitro ADME
# Run Parameters: human liver microsomes, substrate Bupropion (90 μM), preincubation 30 min
# Description: Incubations were conducted using a cocktail of seven prototypical CYP substrates to ascertain the potential of each test article to inhibit the metabolism of concomitantly administered drugs. A mixed-gender pool of 200 human liver microsomal samples was used for this study. […] The supernatant fractions were analyzed by LC-MS/MS. […]
Give a bare numeral; the unit µM is implied.

// below: answered compounds
{"columns": ["Compound", "Target Or System", "Endpoint Label", "Test Result"],
 "data": [
  ["[2H]C([2H])([2H])C(Nc1cc(-c2c[nH]c(C(=O)N[C@H](CO)c3cccc(Cl)c3)c2)c(Cl)cn1)C([2H])([2H])[2H]", "CYP2B6 (Homo sapiens)", "IC50", 16],
  ["[2H]C([2H])([2H])C([2H])(Nc1cc(-c2c[nH]c(C(=O)N[C@H](CO)c3cccc(Cl)c3)c2)c(Cl)cn1)C([2H])([2H])[2H]", "CYP2B6 (Homo sapiens)", "IC50", 16],
  ["CC(C)Nc1cc(-c2c[nH]c(C(=O)N[C@H](CO)c3cccc(Cl)c3)c2)c(Cl)cn1 [Ulixertinib, reference compound]", "CYP2B6 (Homo sapiens)", "IC50", 16]
]}

Pending compound:
Query: Bench note: what IC50 did Cl.[2H]C(C)(C)Nc1cc(-c2c[nH]c(C(=O)N[C@H](CO)c3cccc(Cl)c3)c2)c(Cl)cn1 [Formula 21A] show?
Result: 19
